Biological target: Kallikrein-1 (Homo sapiens, UniProt P06870)
Sequence (P06870 whole entry): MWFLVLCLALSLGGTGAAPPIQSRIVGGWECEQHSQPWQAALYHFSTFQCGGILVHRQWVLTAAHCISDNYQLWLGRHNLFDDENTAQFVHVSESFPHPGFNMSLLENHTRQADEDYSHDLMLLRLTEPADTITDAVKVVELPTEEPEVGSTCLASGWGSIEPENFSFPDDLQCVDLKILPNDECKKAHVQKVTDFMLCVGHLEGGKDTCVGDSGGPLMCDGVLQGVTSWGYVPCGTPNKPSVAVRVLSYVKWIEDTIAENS
Measured Attribute: pKi
FYI, pKi means -log10 of a concentration in mol per litre.

Challenge: So what does the record say about pKi for O=C1CC(c2ccc(O)c(O)c2)Oc2c1c(O)cc(O)c2[C@@H]1C(=O)c2c(O)cc(O)cc2O[C@H]1c1ccc(O)cc1 (stereo partly specified) [FUKUGETIN] ?
Response given: 5.44

----------
Target sequence: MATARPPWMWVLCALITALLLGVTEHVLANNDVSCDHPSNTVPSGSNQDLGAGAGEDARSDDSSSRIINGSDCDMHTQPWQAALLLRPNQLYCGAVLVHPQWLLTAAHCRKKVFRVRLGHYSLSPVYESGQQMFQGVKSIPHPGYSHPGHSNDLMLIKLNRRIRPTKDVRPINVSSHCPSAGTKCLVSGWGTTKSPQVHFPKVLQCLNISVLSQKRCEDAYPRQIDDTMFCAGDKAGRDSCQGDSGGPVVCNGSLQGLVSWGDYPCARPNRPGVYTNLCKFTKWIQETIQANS
Measured Attribute: IC50 (µM)
State just the number; it will be interpreted in µM.

Challenge: So what does the record say about IC50 for O=C1CC(c2ccc(O)c(O)c2)Oc2c1c(O)cc(O)c2[C@@H]1C(=O)c2c(O)cc(O)cc2O[C@H]1c1ccc(O)cc1 (stereo partly specified) ?
Response given: 12.5

----------
Target: UniProt:P07288
Sequence (P07288 whole entry): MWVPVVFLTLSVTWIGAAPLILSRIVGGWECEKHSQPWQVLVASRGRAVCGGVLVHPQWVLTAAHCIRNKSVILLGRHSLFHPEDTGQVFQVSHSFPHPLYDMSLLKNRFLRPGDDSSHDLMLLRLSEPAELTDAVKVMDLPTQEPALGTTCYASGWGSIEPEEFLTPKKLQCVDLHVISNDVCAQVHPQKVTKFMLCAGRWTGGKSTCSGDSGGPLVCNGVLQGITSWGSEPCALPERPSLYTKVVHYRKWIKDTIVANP
Measured Attribute: IC50 (µM)
State just the number; it will be interpreted in µM.

Challenge: Find the measured IC50: item O=C1CC(c2ccc(O)c(O)c2)Oc2c1c(O)cc(O)c2[C@@H]1C(=O)c2c(O)cc(O)cc2O[C@H]1c1ccc(O)cc1 (stereo partly specified) , target or system UniProt:P07288.
Response given: 13

----------
Biological target: Kallikrein-1 (Homo sapiens, UniProt P06870)
Measured Attribute: pIC50
FYI, pIC50 means -log10 of a concentration in mol per litre.

Challenge: So what does the record say about pIC50 for O=C1CC(c2ccc(O)c(O)c2)Oc2c1c(O)cc(O)c2[C@@H]1C(=O)c2c(O)cc(O)cc2O[C@H]1c1ccc(O)cc1 (stereo partly specified) ?
Response given: 5.24

----------
Biological target: Kallikrein-6 (Homo sapiens, UniProt Q92876)
Measured Attribute: IC50 (µM)
State just the number; it will be interpreted in µM.

Challenge: Find the measured IC50: item O=C1CC(c2ccc(O)c(O)c2)Oc2c1c(O)cc(O)c2[C@@H]1C(=O)c2c(O)cc(O)cc2O[C@H]1c1ccc(O)cc1 (stereo partly specified) [FUKUGETIN] , target or system Kallikrein-6 (Homo sapiens, UniProt Q92876).
Response given: 13.5
